Each recorded value in this set is attributed to ChEMBL document CHEMBL4130369.

biological target: Amyloid-beta precursor protein (Homo sapiens, UniProt P05067); experiment: Inhibition of QD-labeled amyloid beta (1 to 42) (unknown origin) aggregation after 24 hrs by inverted fluorescence microscopic method
Sequence (P05067 whole entry): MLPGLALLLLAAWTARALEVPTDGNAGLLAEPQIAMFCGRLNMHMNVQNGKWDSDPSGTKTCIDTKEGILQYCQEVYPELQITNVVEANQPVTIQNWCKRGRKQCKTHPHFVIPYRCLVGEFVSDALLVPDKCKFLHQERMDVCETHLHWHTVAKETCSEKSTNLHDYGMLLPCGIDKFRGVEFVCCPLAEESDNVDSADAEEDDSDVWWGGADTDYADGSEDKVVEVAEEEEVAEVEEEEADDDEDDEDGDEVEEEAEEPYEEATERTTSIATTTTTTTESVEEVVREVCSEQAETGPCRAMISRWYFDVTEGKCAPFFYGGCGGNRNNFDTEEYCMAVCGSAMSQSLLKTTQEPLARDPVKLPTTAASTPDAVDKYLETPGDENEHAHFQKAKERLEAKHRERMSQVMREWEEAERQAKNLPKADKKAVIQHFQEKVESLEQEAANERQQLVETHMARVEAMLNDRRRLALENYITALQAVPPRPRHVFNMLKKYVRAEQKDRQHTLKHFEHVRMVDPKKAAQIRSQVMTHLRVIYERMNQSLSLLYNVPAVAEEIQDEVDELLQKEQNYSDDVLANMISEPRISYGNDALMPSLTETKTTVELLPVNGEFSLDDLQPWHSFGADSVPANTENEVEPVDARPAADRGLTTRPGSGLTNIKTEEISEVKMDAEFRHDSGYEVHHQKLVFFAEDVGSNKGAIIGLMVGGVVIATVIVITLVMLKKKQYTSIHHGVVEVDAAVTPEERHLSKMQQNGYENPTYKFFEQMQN
Label condition met when EC50 is strictly below 20 µM; at or above that, label condition not met.

Q: Does C=CCOC(=O)/C=C/c1ccc(O)c(O)c1 have EC50 strictly under 20 µM?
A: condition not met

***
Q: Please let me know if NC(=O)C(Cc1ccc(O)c(O)c1)OC(=O)/C=C/c1ccc(O)c(O)c1 (stereo unspecified) shows EC50 below 20 µM.
A: condition not met

====

molecular target: UniProtKB P05067; assay: Inhibition of QD-labeled amyloid beta (1 to 42) (unknown origin) aggregation after 24 hrs by inverted fluorescence microscopic method
Labelling: EC50 reported below 10 µM becomes satisfied; at or above becomes not satisfied.

Q: Is 10 µM strictly greater than the compound's reported EC50? compound: COc1ccc(CCOC(=O)/C=C/c2ccc(O)c(O)c2)cc1OC
A: not satisfied

Q: Please check: EC50 for CCCCCCOC(=O)/C=C/c1ccc(O)c(O)c1 [HEXYLCAFFEATE] , strictly under 10 µM or not?
A: satisfied

Q: Find out if reported EC50 for CCCCCCC(=O)/C=C/c1ccc(O)c(O)c1 is less than 10 µM
A: satisfied

// switching to the query compound
Q: Take the compound O=C(CCc1ccc(O)c(O)c1)OCCc1ccc(O)c(O)c1 and say whether its EC50 is less than 10 µM.
A: not satisfied
